# assayInfo: Cytotoxicity assay (Cell Counting Kit-8) in BHK-21 cells
# experimentalContext: hamster, BHK-21 cells (baby hamster kidney)
testReadout: CC50 at 72 h

[ask] Look up and report measured CC50 at 72 h for this entry: COc1cc2c(O)c3c(c(-c4ccc5c(c4)OCO5)c2cc1OC)C(=O)OC3 [Diphyllin 1]
[reply] > 100 µM

---

# assayInfo: Cytotoxicity assay (Cell Counting Kit-8) in UKF-NB-4 cells
# experimentalContext: human, UKF-NB-4 neuroblastoma cells
Below, each entry is listed alongside its reported CC50 at 48 h.
State the answer as a number, implicitly in µM.

| compound | CC50 at 48 h (µM) |
| --- | --- |
| COc1cc2c(O)c3c(c(-c4ccc5c(c4)OCO5)c2cc1OC)C(=O)OC3 [Diphyllin 1] | 11.1 |

API: the following record is the query input.
[ask] Look up and report measured CC50 at 48 h for this entry: COc1cc2c(O[C@@H]3O[C@H](CO)[C@@H](O)[C@H](O)[C@H]3O)c3c(c(-c4ccc5c(c4)OCO5)c2cc1OC)C(=O)OC3 [Cleistanthin B 8, diphyllin-4-β-D-glucopyranoside, reference compound]
[reply] 6.17

---

# assayInfo: Cytotoxicity assay (Cell Counting Kit-8) in PS cells
# experimentalContext: pig, porcine kidney stable (PS) cells
testReadout: CC50 at 48 h (µM)
State the answer as a number, implicitly in µM.

| molecule | resultValue |
| --- | --- |
| COc1cc2c(O)c3c(c(-c4ccc5c(c4)OCO5)c2cc1OC)C(=O)OC3 | 92.4 |

API: the following record is the query input.
[ask] Look up and report measured CC50 at 48 h for this entry: COc1cc2c(O[C@@H]3O[C@H](CO)[C@@H](O)[C@H](O)[C@H]3O)c3c(c(-c4ccc5c(c4)OCO5)c2cc1OC)C(=O)OC3 [Cleistanthin B 8, diphyllin-4-β-D-glucopyranoside, reference compound]
[reply] 78.9

---

# Test system: TBEV, strain Hypr
# assayInfo: microbe, parasite or virus in culture
# experimentalContext: Tick-borne encephalitis virus, Vero
testReadout: EC50 (µM)
State the answer as a number, implicitly in µM.

| compound | testReadout | unitsSymbol | resultValue |
| --- | --- | --- | --- |
| COc1cc2c(O[C@@H]3O[C@H](CO)[C@@H](O)[C@H](O)[C@H]3O)c3c(c(-c4ccc5c(c4)OCO5)c2cc1OC)C(=O)OC3 [Cleistanthin B 8, diphyllin-4-β-D-glucopyranoside, reference compound] | EC50 | µM | 5.53 |

[ask] Look up and report measured EC50 for this entry: COc1cc2c(O)c3c(c(-c4ccc5c(c4)OCO5)c2cc1OC)C(=O)OC3
[reply] 0.85
